Examples of compounds with documented inhibition follow.
Target: UniProt:P05067
Assay: Inhibition of amyloid beta (1 to 42) (unknown origin) assessed as reduction in peptide aggregation at 2 uM measured after 24 hrs by thioflavin-T fluorescence assay relative to control
Square brackets hold non-standard residues; d marks the D form. Peptide text beside a SMILES is read from it. ξ: configuration not given here. Phe(4-tBu) = CC(C)(C)c1ccc(C[C@H](N)C(=O)O)cc1; Bip = N[C@@H](Cc1ccc(-c2ccccc2)cc1)C(=O)O; Oic(3aξ,7aξ) = O=C(O)[C@@H]1CC2CCCCC2N1; Phe(4-NH2) = Nc1ccc(C[C@H](N)C(=O)O)cc1; Phe(4-F) = N[C@@H](Cc1ccc(F)cc1)C(=O)O; 1Nal = N[C@@H](Cc1cccc2ccccc12)C(=O)O; Ala(cPr) = N[C@@H](CC1CC1)C(=O)O; Tle = CC(C)(C)[C@H](N)C(=O)O; NMeNva = CCC[C@H](NC)C(=O)O; Abu = CC[C@H](N)C(=O)O
parameterMeasured: inhibition (%)

1) CC(C)[C@H](N)C(=O)N[C@H](C(=O)N1C2CCCCC2C[C@H]1C(=O)N[C@@H](C)C(=O)O)C(C)C (stereo partly specified) (H-VV[Oic(3aξ,7aξ)]A-OH); 37.2
2) CC[C@H](C)[C@H](NC(=O)[C@@H](NC(=O)[C@@H](N)C(C)C)C(C)(C)C)C(=O)N[C@@H](C)C(=O)O (H-V[Tle]IA-OH); 100
3) CC(C)[C@H](N)C(=O)N[C@H](C(=O)N[C@@H](CC1CC1)C(=O)N[C@@H](C)C(=O)O)C(C)C (H-VV[Ala(cPr)]A-OH); 0
4) CC[C@H](C)[C@H](NC(=O)[C@@H](NC(=O)[C@@H](N)Cc1ccc(F)cc1)C(C)C)C(=O)N[C@@H](C)C(=O)O (H-[Phe(4-F)]VIA-OH); 100
5) CC[C@H](C)[C@H](NC(=O)[C@@H](NC(=O)[C@@H](N)C(C)C)C(C)C)C(=O)N[C@@H](CC(=O)O)C(=O)O (H-VVID-OH); 82
6) CC[C@H](C)[C@H](NC(=O)[C@@H](NC(=O)[C@@H](N)Cc1ccc(N)cc1)C(C)C)C(=O)N[C@@H](C)C(=O)O (H-[Phe(4-NH2)]VIA-OH); 59.2
7) CC[C@H](NC(=O)[C@@H](NC(=O)[C@@H](N)C(C)C)C(C)C)C(=O)N[C@@H](C)C(=O)O (H-VV[Abu]A-OH); 0
8) CC[C@H](C)[C@H](NC(=O)[C@@H](NC(=O)[C@@H](N)Cc1ccc(-c2ccccc2)cc1)C(C)C)C(=O)N[C@@H](C)C(=O)O (H-[Bip]VIA-OH); 26.4
9) CC[C@H](C)[C@H](NC(=O)[C@@H](NC(=O)[C@@H](N)Cc1ccc(C(C)(C)C)cc1)C(C)C)C(=O)N[C@@H](C)C(=O)O (H-[Phe(4-tBu)]VIA-OH); 78.6
10) CC[C@H](C)[C@H](NC(=O)[C@@H](NC(=O)[C@@H](N)Cc1cccc2ccccc12)C(C)C)C(=O)N[C@@H](C)C(=O)O (H-[1Nal]VIA-OH); 34
11) CCC[C@@H](C(=O)N[C@@H](C)C(=O)O)N(C)C(=O)[C@@H](NC(=O)[C@@H](N)C(C)C)C(C)C (H-VV[NMeNva]A-OH); 22.2

---

Molecular target: Amyloid-beta precursor protein (Homo sapiens) (UniProt P05067)
Sequence (P05067 whole entry): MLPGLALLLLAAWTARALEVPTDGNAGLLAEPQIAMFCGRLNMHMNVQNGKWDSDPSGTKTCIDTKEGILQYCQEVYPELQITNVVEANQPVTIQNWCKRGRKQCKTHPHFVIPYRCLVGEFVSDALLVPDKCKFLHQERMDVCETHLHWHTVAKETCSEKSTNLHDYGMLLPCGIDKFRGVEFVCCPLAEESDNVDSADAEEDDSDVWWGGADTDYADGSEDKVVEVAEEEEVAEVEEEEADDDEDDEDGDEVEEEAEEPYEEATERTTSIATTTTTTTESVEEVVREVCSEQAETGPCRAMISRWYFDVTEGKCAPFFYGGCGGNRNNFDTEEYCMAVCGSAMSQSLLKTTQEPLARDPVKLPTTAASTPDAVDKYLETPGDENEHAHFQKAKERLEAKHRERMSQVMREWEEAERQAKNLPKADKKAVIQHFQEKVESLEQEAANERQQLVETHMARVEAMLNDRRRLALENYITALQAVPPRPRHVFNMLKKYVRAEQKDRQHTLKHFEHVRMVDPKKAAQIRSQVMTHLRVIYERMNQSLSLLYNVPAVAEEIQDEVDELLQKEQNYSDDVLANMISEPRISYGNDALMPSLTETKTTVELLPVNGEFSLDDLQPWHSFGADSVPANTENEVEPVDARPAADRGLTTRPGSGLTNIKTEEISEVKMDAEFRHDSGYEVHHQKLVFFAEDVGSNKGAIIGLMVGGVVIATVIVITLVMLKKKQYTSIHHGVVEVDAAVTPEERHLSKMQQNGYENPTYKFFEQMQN
Experiment: Inhibition of amyloid beta (1 to 42) (unknown origin) assessed as reduction in peptide aggregation at 2 uM measured after 24 hrs by thioflavin-T fluorescence assay relative to control
Square brackets hold non-standard residues; d marks the D form. Peptide text beside a SMILES is read from it. ξ: configuration not given here. Oic(3aξ,7aξ) = O=C(O)[C@@H]1CC2CCCCC2N1; NMeF = CN[C@@H](Cc1ccccc1)C(=O)O; β3hP = O=C(O)C[C@@H]1CCCN1
parameterMeasured: inhibition (%)

1) CC[C@H](C)[C@H](NC(=O)[C@@H](NC(=O)[C@H](Cc1ccccc1)NC)C(C)C)C(=O)N[C@@H](C)C(=O)O (H-[NMeF]VIA-OH); 84.8
2) CC[C@H](C)[C@H](NC(=O)[C@@H]1CC2CCCCC2N1C(=O)[C@@H](N)C(C)C)C(=O)N[C@@H](C)C(=O)O (stereo partly drawn) (H-V[Oic(3aξ,7aξ)]IA-OH); 100
3) CC[C@H](C)[C@H](NC(=O)C[C@@H]1CCCN1C(=O)C[C@@H]1CCCN1)C(=O)N[C@@H](C)C(=O)O (H-[β3hP][β3hP]IA-OH); 78.9

---

Molecular target: Amyloid-beta precursor protein (Homo sapiens) (UniProt P05067)
Assay: Inhibition of amyloid beta (1 to 42) (unknown origin) assessed as reduction in peptide aggregation at 10 uM measured after 24 hrs by thioflavin-T fluorescence assay relative to control
Square brackets hold non-standard residues; d marks the D form. Peptide text beside a SMILES is read from it. Phe(4-Cl) = N[C@@H](Cc1ccc(Cl)cc1)C(=O)O; Phe(4-F) = N[C@@H](Cc1ccc(F)cc1)C(=O)O; 1Nal = N[C@@H](Cc1cccc2ccccc12)C(=O)O; NMeL = CN[C@@H](CC(C)C)C(=O)O; Tle = CC(C)(C)[C@H](N)C(=O)O; NMeNva = CCC[C@H](NC)C(=O)O; Abu = CC[C@H](N)C(=O)O
parameterMeasured: inhibition (%)

1. CCC[C@@H](C(=O)N[C@@H](C)C(=O)O)N(C)C(=O)[C@@H](NC(=O)[C@@H](N)C(C)C)C(C)C (H-VV[NMeNva]A-OH); 40.8
2. CC[C@H](C)[C@H](NC(=O)[C@@H](NC(=O)C[C@H](N)c1ccccc1)C(C)C)C(=O)N[C@@H](C)C(=O)O; 67.3
3. CC[C@H](C)[C@H](NC(=O)[C@@H](NC(=O)[C@@H](N)C(C)C)C(C)C)C(=O)N[C@@H](CC(=O)O)C(=O)O (H-VVID-OH); 100
4. CC[C@H](C)[C@H](NC(=O)[C@@H](NC(=O)[C@@H](N)C(C)C)C(C)C)C(=O)N[C@@H](CC(N)=O)C(=O)O (H-VVIN-OH); 71.5
5. CC(C)C[C@@H](C(=O)N[C@@H](C)C(=O)O)N(C)C(=O)[C@@H](NC(=O)[C@@H](N)C(C)C)C(C)C (H-VV[NMeL]A-OH); 61
6. CC[C@H](C)[C@H](NC(=O)CNC(=O)CN)C(=O)N[C@@H](C)C(=O)O (H-GGIA-OH); 98.3
7. CC[C@H](C)[C@H](NC(=O)[C@@H](NC(=O)[C@@H](N)C(C)C)C(C)(C)C)C(=O)N[C@@H](C)C(=O)O (H-V[Tle]IA-OH); 100
8. CC[C@H](C)[C@H](NC(=O)[C@@H](NC(=O)[C@@H](N)Cc1cccc2ccccc12)C(C)C)C(=O)N[C@@H](C)C(=O)O (H-[1Nal]VIA-OH); 29.1
9. CC[C@H](C)[C@H](NC(=O)[C@@H](NC(=O)[C@@H](N)Cc1ccc(Cl)cc1)C(C)C)C(=O)N[C@@H](C)C(=O)O (H-[Phe(4-Cl)]VIA-OH); 75.8
10. CC[C@H](NC(=O)[C@@H](N)CC)C(=O)N[C@H](C(=O)N[C@@H](C)C(=O)O)[C@@H](C)CC (H-[Abu][Abu]IA-OH); 88.7
11. CC[C@H](C)[C@H](NC(=O)[C@@H](NC(=O)[C@@H](N)C(C)C)C(C)C)C(=O)N[C@@H](C)C(=O)O (H-VVIA-OH); 66.2
12. CC[C@H](C)[C@H](NC(=O)[C@@H](NC(=O)[C@@H](N)Cc1ccc(F)cc1)C(C)C)C(=O)N[C@@H](C)C(=O)O (H-[Phe(4-F)]VIA-OH); 91.7
13. CC[C@H](NC(=O)[C@@H](NC(=O)[C@@H](NC(=O)[C@@H](N)C(C)C)C(C)C)[C@@H](C)CC)C(=O)O (H-VVI[Abu]-OH); 32.5
14. CC(C)[C@H](N)C(=O)N[C@H](C(=O)N[C@H](C(=O)N[C@@H](C)C(=O)O)C(C)(C)C)C(C)C (H-VV[Tle]A-OH); 0

---

Biological target: Amyloid-beta precursor protein (Homo sapiens) (UniProt P05067)
Test: Inhibition of amyloid beta (1 to 42) (unknown origin) assessed as reduction in peptide aggregation at 4 uM measured after 24 hrs by thioflavin-T fluorescence assay relative to control
Square brackets hold non-standard residues; d marks the D form. Peptide text beside a SMILES is read from it. Phe(4-NO2) = N[C@@H](Cc1ccc([N+](=O)[O-])cc1)C(=O)O; Ala(cPr) = N[C@@H](CC1CC1)C(=O)O; NMeL = CN[C@@H](CC(C)C)C(=O)O; Tle = CC(C)(C)[C@H](N)C(=O)O; Abu = CC[C@H](N)C(=O)O
Label scheme for inhibition: lower than 60% is class 0, 60% and above is class 1.

1) CC[C@H](C)[C@H](NC(=O)[C@@H](NC(=O)[C@@H](N)C(C)(C)C)C(C)(C)C)C(=O)N[C@@H](C)C(=O)O (H-[Tle][Tle]IA-OH); class 1
2) CC[C@H](C)[C@H](NC(=O)[C@@H](NC(=O)[C@@H](N)Cc1ccc([N+](=O)[O-])cc1)C(C)C)C(=O)N[C@@H](C)C(=O)O (H-[Phe(4-NO2)]VIA-OH); class 1
3) CC(C)[C@H](N)C(=O)N[C@H](C(=O)N[C@@H](CC1CC1)C(=O)N[C@@H](C)C(=O)O)C(C)C (H-VV[Ala(cPr)]A-OH); class 0
4) CC[C@H](NC(=O)[C@@H](N)C(C)C)C(=O)N[C@H](C(=O)N[C@@H](C)C(=O)O)[C@@H](C)CC (H-V[Abu]IA-OH); class 0
5) CC(C)C[C@@H](C(=O)N[C@@H](C)C(=O)O)N(C)C(=O)[C@@H](NC(=O)[C@@H](N)C(C)C)C(C)C (H-VV[NMeL]A-OH); class 0
6) CC[C@H](C)[C@H](NC(=O)[C@@H](NC(=O)[C@@H](N)C(C)C)C(C)C)C(=O)N[C@@H](CCC(N)=O)C(=O)O (H-VVIQ-OH); class 0

These data points were gathered from ChEMBL document CHEMBL4732135.
